- assayed_target: T1, PHF-tau (paired helical filament tau isolated from Alzheimer's disease brain) (human, UniProt P10636-8 2-441, limits assumed, hyper-phosphorylated, aggregated; sites not listed for the preparation)
- T1 construct: also called enriched PHF-tau; ePHF-tau
- T1 sequence (P10636 other isoform, or with tags, fused parts or gaps limits assumed): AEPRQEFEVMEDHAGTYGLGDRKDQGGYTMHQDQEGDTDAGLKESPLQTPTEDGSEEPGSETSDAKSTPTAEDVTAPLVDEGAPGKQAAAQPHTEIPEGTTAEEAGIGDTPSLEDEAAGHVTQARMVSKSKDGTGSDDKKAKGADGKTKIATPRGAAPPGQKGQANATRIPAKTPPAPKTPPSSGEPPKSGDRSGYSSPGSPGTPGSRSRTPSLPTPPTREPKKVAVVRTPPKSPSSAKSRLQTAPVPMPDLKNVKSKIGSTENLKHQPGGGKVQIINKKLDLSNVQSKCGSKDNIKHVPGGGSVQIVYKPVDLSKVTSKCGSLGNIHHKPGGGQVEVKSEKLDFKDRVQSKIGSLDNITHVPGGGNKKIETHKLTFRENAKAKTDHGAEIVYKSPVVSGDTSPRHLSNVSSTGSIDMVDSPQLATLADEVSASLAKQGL
- assay_notes: SPR ProteOn, PHF-tau capture-coupled via HT7, bivalent model
Note to self: use Y only for kon readings below 700000 M⁻¹ s⁻¹; a reading exactly at 700000 M⁻¹ s⁻¹ still gets N.

Take a look at these entries with their results.
B235 (antibody, human IgG1, V domains shown, Humanized (HFA) PT3 variant, human IgG1/kappa; also called VH91/VL77) VH: EVQLLESGGGLVQPGGSLRLSCAASGFTFSSYAMSWVRQAPGKGLEWVSSISKGGNTYYADSVKGRFTISRDNSKNTLYLQMNSLRAEDTAVYYCAKGWGDYGWFAYWGQVTLVTVSS VL: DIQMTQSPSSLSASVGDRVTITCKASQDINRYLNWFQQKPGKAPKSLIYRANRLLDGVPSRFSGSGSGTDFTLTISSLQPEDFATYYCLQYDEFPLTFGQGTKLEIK    Y
B296 (antibody, human IgG1, kappa, V domains shown, Humanized PT3, human IgG1/kappa; also called VH92/VL77; HFA-PT3) VH: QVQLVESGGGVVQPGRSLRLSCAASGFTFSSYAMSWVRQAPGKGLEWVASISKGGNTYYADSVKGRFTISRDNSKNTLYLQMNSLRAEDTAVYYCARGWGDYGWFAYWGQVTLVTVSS VL: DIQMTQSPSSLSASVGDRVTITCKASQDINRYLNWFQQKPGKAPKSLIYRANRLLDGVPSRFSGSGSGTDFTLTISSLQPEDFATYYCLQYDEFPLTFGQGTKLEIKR    N
B297 (antibody, human IgG1, V domains shown, Humanized (HFA) PT3 variant, human IgG1/kappa; it is built from VL77 with D56S; also called VH93/VL78) VH: QVQLVESGGGLVKPGGSLRLSCAASGFTFSSYAMSWIRQAPGKGLEWVSSISKGGNTYYADSVKGRFTISRDNAKNSLYLQMNSLRAEDTAVYYCARGWGDYGWFAYWGQVTLVTVSS VL: DIQMTQSPSSLSASVGDRVTITCKASQDINRYLNWFQQKPGKAPKSLIYRANRLLSGVPSRFSGSGSGTDFTLTISSLQPEDFATYYCLQYDEFPLTFGQGTKLEIK    N
B252 (antibody, human IgG1, V domains shown, Humanized (HFA) PT3 variant, human IgG1/kappa; also called VH93/VL80) VH: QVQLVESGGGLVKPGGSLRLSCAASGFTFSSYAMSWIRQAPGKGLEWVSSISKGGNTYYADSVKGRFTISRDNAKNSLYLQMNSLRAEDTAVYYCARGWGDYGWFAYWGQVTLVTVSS VL: DIVMTQTPLSSPVTLGQPASISCKASQDINRYLNWLQQRPGQPPRLLIYRANRLLDGVPDRFSGSGAGTDFTLKISRVEAEDVGVYYCLQYDEFPLTFGQGTKLEIK    N
B280 (antibody, human IgG1, V domains shown, Humanized (HFA) PT3 variant, human IgG1/kappa; also called VH91/VL80) VH: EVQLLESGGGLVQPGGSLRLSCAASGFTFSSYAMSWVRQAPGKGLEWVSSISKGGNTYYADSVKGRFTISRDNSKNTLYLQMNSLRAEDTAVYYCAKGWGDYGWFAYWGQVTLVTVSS VL: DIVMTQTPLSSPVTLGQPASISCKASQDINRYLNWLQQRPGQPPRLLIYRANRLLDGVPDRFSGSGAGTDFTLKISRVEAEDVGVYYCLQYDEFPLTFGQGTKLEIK    N

Record B282 (antibody, human IgG1, V domains shown, Humanized (HFA) PT3 variant, human IgG1/kappa; also called VH93/VL77) VH: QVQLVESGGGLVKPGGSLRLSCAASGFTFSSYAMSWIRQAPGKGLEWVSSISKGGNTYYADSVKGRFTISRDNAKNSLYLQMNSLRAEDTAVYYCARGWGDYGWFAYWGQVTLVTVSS VL: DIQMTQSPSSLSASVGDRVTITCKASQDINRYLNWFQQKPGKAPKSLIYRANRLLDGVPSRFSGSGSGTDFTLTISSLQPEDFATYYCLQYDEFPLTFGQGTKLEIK : is its kon strictly below 700000 M⁻¹ s⁻¹?
Y

One more binder: B352 (IgG4 mAb) (antibody, V domains shown, IgG4 variant of B296 with the same variable regions; also called B296 as hIgG4) VH: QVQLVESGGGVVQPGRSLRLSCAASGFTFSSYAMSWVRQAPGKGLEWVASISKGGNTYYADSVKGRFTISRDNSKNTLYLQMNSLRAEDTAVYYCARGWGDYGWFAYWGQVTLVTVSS VL: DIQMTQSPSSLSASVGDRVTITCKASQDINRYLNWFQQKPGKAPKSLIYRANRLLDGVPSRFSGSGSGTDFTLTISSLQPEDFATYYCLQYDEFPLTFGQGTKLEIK
Y
